- target or system: human CCR8 (human, UniProt P51685 1-355)
- assay summary: cell-based or functional assay
property name: hCCL1 (100 nM) residual response, Protocol #2, mAb 0.08 µg/mL

Please review the entries below; each comes with its answer.
binder	recorded measurement
3-28 (antibody, V domains shown) VH: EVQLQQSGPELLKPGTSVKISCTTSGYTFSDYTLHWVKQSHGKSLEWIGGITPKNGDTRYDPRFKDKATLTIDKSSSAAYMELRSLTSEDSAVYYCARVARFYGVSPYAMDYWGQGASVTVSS VL: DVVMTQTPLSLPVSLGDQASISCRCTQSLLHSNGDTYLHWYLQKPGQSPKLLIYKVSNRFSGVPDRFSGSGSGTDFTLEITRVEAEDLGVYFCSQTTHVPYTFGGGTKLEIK	79%
3-46 (antibody, V domains shown) VH: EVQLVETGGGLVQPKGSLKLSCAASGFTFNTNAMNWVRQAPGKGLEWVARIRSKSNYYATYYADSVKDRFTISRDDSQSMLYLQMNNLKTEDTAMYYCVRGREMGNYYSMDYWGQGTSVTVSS VL: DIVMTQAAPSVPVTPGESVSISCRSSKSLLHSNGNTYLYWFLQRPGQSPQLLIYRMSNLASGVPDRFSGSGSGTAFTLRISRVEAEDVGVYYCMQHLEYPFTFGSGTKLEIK	60%

INPUT: Would you mind telling me what hCCL1 (100 nM) residual response, Protocol #2, mAb 0.08 µg/mL value was observed for 3-49 (antibody, V domains shown) VH: EVQLQQSGPELVKPGASVKISCKTSGYTFTEYTMHWVKQSHGKSLEWIGGINPNNGDTNYNQKFMGKATLTVDKSSSTAYMELRSLTSEDSAVYYCVRRLLRRGAMDYWGQGTSVTVSS VL: DIVLTQSPASLAVSLGQRATISCRASENVEYYGTSLMQWFQQKPGQPPKLLIYAASNVDSGVPARFSGSGSGTDFSLNIHPVEEDDIAMYFCQQSRKVPWTFGGGTKLDIK ?
OUTPUT: 99%
